Hello, the source for this data is patent US4929751A, in case you need it.

Test system: HCC-2998 (colon)
assay_name: growth inhibition of tumor cell line
Assay type: cell-based
condition_info: Homo sapiens; HCC-2998; read-out: IC-50 MEAN
measured_parameter: IC50
Answer by giving the amount and then stating its unit.

Look up IC50 of C=CC(=O)C(O)(O)C(=O)OC(C)(C)C [t-butyl 2,3-dioxo-pent-4-enoate hydrate] and report it.
52 µM

---

Tested on: LOX (melanoma)
assay_name: growth inhibition of tumor cell line
Type: cell-based
condition_info: read-out: IC-50 MEAN
measured_parameter: IC50 (µM)
One number for each entry, in µM.

Look up IC50 of C=CC(=O)C(O)(O)C(=O)OC(C)(C)C [t-butyl 2,3-dioxo-pent-4-enoate hydrate] and report it.
102
